test: pKa determination using 13C NMR titration
experimental parameters: pH 7.4
Provide the reported Fraction protonated at pH 7.4 of each item.

Need Fraction protonated at pH 7.4, item CCNC1=N[C@@H]2[C@@H](O)[C@H](O)[C@@H](CO)O[C@@H]2S1 [15c]
0.66

Record request: Fraction protonated at pH 7.4 value, item OC[C@H]1O[C@@H]2SC(NCC(F)(F)F)=N[C@@H]2[C@@H](O)[C@@H]1O [15h]
0.01

Can you look up the measured Fraction protonated at pH 7.4 of OC[C@H]1O[C@@H]2SC(NCCF)=N[C@@H]2[C@@H](O)[C@@H]1O [15f] for me?
0.25

What does the record list as Fraction protonated at pH 7.4 for OC[C@H]1O[C@@H]2SC(NCC(F)F)=N[C@@H]2[C@@H](O)[C@@H]1O [15g] ?
0.06

* * *

test: physchem
experimental parameters: aqueous solution (H2O/D2O) with reference phenol
I'd be grateful if you could share measured pKa for these entries.
Answer using only a numeral; do not append any unit.

Given the molecule OC[C@H]1O[C@@H]2SC(NCC(F)F)=N[C@@H]2[C@@H](O)[C@@H]1O [15g] , what is its reported pKa?
6.18

Tell me the measured pKa of OC[C@H]1O[C@@H]2SC(NCC(F)(F)F)=N[C@@H]2[C@@H](O)[C@@H]1O [15h] , please.
5.33

Can you share its pKa? I mean this molecule: CCCC1=N[C@@H]2[C@@H](O)[C@H](O)[C@@H](CO)O[C@@H]2S1 [NButGT, reference compound]
4.65

Using the record for OC[C@H]1O[C@@H]2SC(NCCF)=N[C@@H]2[C@@H](O)[C@@H]1O [15f] , report its pKa.
6.92

Consider the molecule CCNC1=N[C@@H]2[C@@H](O)[C@H](O)[C@@H](CO)O[C@@H]2S1 [15c] and give its measured pKa.
7.68

* * *

assay target: human hexosaminidase B (hHexB) (Homo sapiens)
Construct: Micheal Tropak, Hospital for Sick Children, Toronto (gift, not a vendor)
Sequence (P07686 122-556): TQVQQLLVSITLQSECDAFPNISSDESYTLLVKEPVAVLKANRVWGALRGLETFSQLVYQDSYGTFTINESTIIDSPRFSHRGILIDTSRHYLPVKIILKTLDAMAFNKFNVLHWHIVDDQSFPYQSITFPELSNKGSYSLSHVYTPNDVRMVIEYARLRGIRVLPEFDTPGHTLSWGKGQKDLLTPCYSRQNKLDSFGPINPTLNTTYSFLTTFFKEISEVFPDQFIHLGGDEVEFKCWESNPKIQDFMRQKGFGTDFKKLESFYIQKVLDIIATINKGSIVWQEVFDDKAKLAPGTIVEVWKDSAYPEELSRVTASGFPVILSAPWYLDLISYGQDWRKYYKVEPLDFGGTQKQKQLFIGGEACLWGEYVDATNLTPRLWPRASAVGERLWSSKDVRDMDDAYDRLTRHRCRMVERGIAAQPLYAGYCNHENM
test: Inhibition of human hexosaminidase B (4-MUGlcNAc substrate)
Type: biochemical
experimental parameters: Dixon plot analysis (approximate Ki); pH 4.25, 37°C
Task for the reader: assign each of the following molecules its reported pKi.
Hey, just a heads up that pKi is the negative log base 10 of the concentration in molar.

I'd like to know its pKi. The molecule in question is CCCCNC1=N[C@@H]2[C@@H](O)[C@H](O)[C@@H](CO)O[C@@H]2S1 [15e]
2.32

Can you look up the measured pKi of CN(C)C1=N[C@@H]2[C@@H](O)[C@H](O)[C@@H](CO)O[C@@H]2S1 [15b] for me?
4.89

Quick one: pKi of OC[C@H]1O[C@@H]2SC(NCC(F)F)=N[C@@H]2[C@@H](O)[C@@H]1O [15g] ?
3.82

What pKi value was documented for this molecule, OC[C@H]1O[C@@H]2SC(NCC(F)(F)F)=N[C@@H]2[C@@H](O)[C@@H]1O [15h] ?
2.38

So what's the measured pKi for this one? OC[C@H]1O[C@@H]2SC(NCCF)=N[C@@H]2[C@@H](O)[C@@H]1O [15f]
3.74

Fill blank: measured pKi of the molecule C=CCNC1=N[C@@H]2[C@@H](O)[C@H](O)[C@@H](CO)O[C@@H]2S1 [11b] is ____.
2.55

Quick check: pKi of CCCNC1=N[C@@H]2[C@@H](O)[C@H](O)[C@@H](CO)O[C@@H]2S1 [15d] ?
2.43
